- test protocol: Aqueous solubility
- Format: physicochemical
- condition details: pH 7
// reported Aqueous solubility at pH 7 for each item listed

compound | meas value
COCC1(OC(=O)C(C)N)CCN(c2c(F)cc(N3C[C@H](CNC(C)=O)OC3=O)cc2F)CC1.O=C(O)C(F)(F)F (some centres unmarked) | > 100 mg/ml

Prompt: Please report the recorded Aqueous solubility at pH 7 for COCC1(OC(=O)CN)CCN(c2c(F)cc(N3C[C@H](CNC(C)=O)OC3=O)cc2F)CC1.O=C(O)C(F)(F)F .
Completion: > 100 mg/ml

Prompt: Same for COCC1(C(=O)[C@@H](NC(=O)OCc2ccccc2)C(C)C)CCN(c2c(F)cc(N3C[C@H](CNC(C)=O)OC3=O)cc2F)CC1
Completion: > 100 mg/ml

Prompt: Same for COCC1(OP(=O)(O)O)CCN(c2c(F)cc(N3C[C@H](CNC(C)=O)OC3=O)cc2F)CC1
Completion: ~2 mg/ml

Prompt: Same for COCC1(C(=O)[C@H](C)NC(=O)OC(C)(C)C)CCN(c2c(F)cc(N3C[C@H](CNC(C)=O)OC3=O)cc2F)CC1
Completion: > 100 mg/ml

###

- test protocol: Aqueous solubility
- Assay type: physicochemical
- condition details: aqueous, pH not stated; read-out: Aqueous solubility
experimental readout: solubility

Prompt: Please report the recorded solubility for COCC1(OP(=O)(O)O)CCN(c2c(F)cc(N3C[C@H](CNC(C)=O)OC3=O)cc2F)CC1 .
Completion: > 200 mg/mL

###

- test protocol: Aqueous solubility
- Format: physicochemical
- condition details: aqueous, pH 7, aqueous buffer, pH 7; read-out: Aqueous solubility at pH 7
experimental readout: solubility

Below are worked cases with known answers.
compound | meas value
COCC1(OC(=O)C(C)N)CCN(c2c(F)cc(N3C[C@H](CNC(C)=O)OC3=O)cc2F)CC1.Cl (stereo partly drawn) [Example 14] | > 100 mg/mL
COCC1(OP(=O)([O-])[O-])CCN(c2c(F)cc(N3C[C@H](CNC(C)=O)OC3=O)cc2F)CC1.[Ca+2] [Example 7] | ~0.5 mg/mL

Shifting focus to the compound that follows.
Prompt: Please report the recorded solubility for COCC1(OC(=O)CN)CCN(c2c(F)cc(N3C[C@H](CNC(C)=O)OC3=O)cc2F)CC1.Cl [Example 11] .
Completion: > 100 mg/mL

###

- test protocol: Aqueous solubility
- Assay type: physicochemical
- condition details: aqueous, pH 7, aqueous buffer; read-out: Aqueous solubility at pH 7
experimental readout: solubility

Prompt: Please report the recorded solubility for COCC1(OC(=O)C(N)C(C)C)CCN(c2c(F)cc(N3C[C@H](CNC(C)=O)OC3=O)cc2F)CC1.CS(=O)(=O)O (stereo partly shown) .
Completion: > 100 mg/mL

Ref: patent US8288416B2
